The reported measurements were obtained from paper PMC7211195.

Assay: Lapatinib pharmacokinetics and uptake in rat brain tissue (BT)
Format: in vivo, rats
Conditions: male, Wistar, rat, brain, po, 100 mg/kg, brain tissue; lapatinib 100 mg/kg oral alone (IIL)
EXPERIMENTAL_READOUT: Cmax (ng/mL)

CHEMICAL_STRING | EXPERIMENTAL_READOUT | UNIT_DESCRIPTOR | TEST_VALUE
CS(=O)(=O)CCNCc1ccc(-c2ccc3ncnc(Nc4ccc(OCc5cccc(F)c5)c(Cl)c4)c3c2)o1 | Cmax | ng/mL | 128

###

Assay: Lapatinib pharmacokinetics and uptake in rat brain tissue (BT);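 on BT corr (BT homogenate), single rat: brain concentration corrected for residual brain blood by the Fridén method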
Type: in vivo, rats
Settings: male, Wistar, rat, brain tissue homogenate, corrected for residual blood, oral, lapatinib 100 mg/kg + elacridar, 8 h; read-out: BT corr (BT homogenate), single rat
EXPERIMENTAL_READOUT: concentration at 8 h (ng/mL)

COMPOUND | UNIT_DESCRIPTOR | TEST_VALUE
CS(=O)(=O)CCNCc1ccc(-c2ccc3ncnc(Nc4ccc(OCc5cccc(F)c5)c(Cl)c4)c3c2)o1 [lapatinib] | ng/mL | 91.5

###

Assay: Lapatinib pharmacokinetics and uptake in rat brain tissue (BT)
Type: in vivo, rats
Settings: male, Wistar, rat, brain, po, 100 mg/kg, brain tissue; lapatinib 100 mg/kg oral alone (IIL)
EXPERIMENTAL_READOUT: AUC(0-t) (ng·h/mL)

CHEMICAL_STRING | EXPERIMENTAL_READOUT | TEST_VALUE
CS(=O)(=O)CCNCc1ccc(-c2ccc3ncnc(Nc4ccc(OCc5cccc(F)c5)c(Cl)c4)c3c2)o1 | AUC(0-t) | 836

###

Test: Lapatinib pharmacokinetics and uptake in rat brain tissue (BT)
Type: in vivo, rats
Settings: male, Wistar, rat, brain, oral, lapatinib 100 mg/kg + elacridar, 6 h; read-out: Clapatinib in BT, single rat

CHEMICAL_STRING | UNIT_DESCRIPTOR | concentration at 6 h
CS(=O)(=O)CCNCc1ccc(-c2ccc3ncnc(Nc4ccc(OCc5cccc(F)c5)c(Cl)c4)c3c2)o1 | ng/mL | 100

###

Assay: Lapatinib pharmacokinetics in rat blood plasma (BP), HPLC-MS/MS, noncompartmental analysis
Type: in vivo, rats
Settings: male, Wistar, rat, plasma, po, 100 mg/kg, lapatinib p.o. 100 mg/kg alone, 6 h; read-out: Clapatinib in BP, S (medium value)

CHEMICAL_STRING | concentration at 6 h
CS(=O)(=O)CCNCc1ccc(-c2ccc3ncnc(Nc4ccc(OCc5cccc(F)c5)c(Cl)c4)c3c2)o1 | 1940 ng/mL

###

Assay: Lapatinib pharmacokinetics and uptake in rat cerebrospinal fluid (CSF)
Assay type: in vivo, rats
Conditions: male, Wistar, rat, cerebrospinal fluid (CSF), po, 100 mg/kg, lapatinib p.o. 100 mg/kg alone, 2 h; read-out: Clapatinib in CSF, single rat

CHEMICAL_STRING | concentration at 2 h
CS(=O)(=O)CCNCc1ccc(-c2ccc3ncnc(Nc4ccc(OCc5cccc(F)c5)c(Cl)c4)c3c2)o1 | 10.8 ng/mL

###

Assay: Lapatinib pharmacokinetics and uptake in rat cerebrospinal fluid (CSF)
Assay type: in vivo, rats
Conditions: male, Wistar, rat, cerebrospinal fluid, oral, lapatinib 100 mg/kg + elacridar, 1 h; read-out: Clapatinib in CSF, S

CHEMICAL_STRING | concentration at 1 h (ng/mL)
CS(=O)(=O)CCNCc1ccc(-c2ccc3ncnc(Nc4ccc(OCc5cccc(F)c5)c(Cl)c4)c3c2)o1 | 30
